# reported Ki; entries follow
Target: Sodium-dependent serotonin transporter (Rattus norvegicus, UniProt P31652)
Sequence (P31652 whole entry): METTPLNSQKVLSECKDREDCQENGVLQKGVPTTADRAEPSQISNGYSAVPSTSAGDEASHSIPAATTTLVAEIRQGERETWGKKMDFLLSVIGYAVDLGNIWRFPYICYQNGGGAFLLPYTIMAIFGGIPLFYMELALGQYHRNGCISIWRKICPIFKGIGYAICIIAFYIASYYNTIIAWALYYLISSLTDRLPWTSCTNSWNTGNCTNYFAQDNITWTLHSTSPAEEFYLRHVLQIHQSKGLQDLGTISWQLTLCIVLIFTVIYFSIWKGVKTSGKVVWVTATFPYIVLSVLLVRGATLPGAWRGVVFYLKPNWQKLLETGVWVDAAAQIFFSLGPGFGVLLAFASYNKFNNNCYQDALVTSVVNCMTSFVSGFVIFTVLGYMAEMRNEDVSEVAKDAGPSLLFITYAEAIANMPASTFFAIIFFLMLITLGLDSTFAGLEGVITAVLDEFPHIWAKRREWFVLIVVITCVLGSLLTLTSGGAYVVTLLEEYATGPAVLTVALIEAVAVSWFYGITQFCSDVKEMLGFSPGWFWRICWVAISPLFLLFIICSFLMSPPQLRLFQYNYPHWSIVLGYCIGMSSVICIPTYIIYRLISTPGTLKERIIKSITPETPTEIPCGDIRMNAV
Test: Inhibition of [3H]5HT uptake at SERT in rat brain hippocampal synaptosomes by liquid scintillation spectrophotometry
Give your result in µM as a bare value.

CN1C(CC(=O)c2ccccc2)CCC[C@H]1CC(OS(=O)(=O)c1ccccc1)c1ccccc1 (single isomer, unassigned)	37.3

query: Complete the entry with Ki for CC(=O)OC(C[C@@H]1CCCC(CC(=O)c2ccccc2)N1C)c1ccccc1 (single isomer, unassigned)
result: 31.4

----------
Target: Synaptic vesicular amine transporter (Homo sapiens)
Sequence (Q05940 whole entry): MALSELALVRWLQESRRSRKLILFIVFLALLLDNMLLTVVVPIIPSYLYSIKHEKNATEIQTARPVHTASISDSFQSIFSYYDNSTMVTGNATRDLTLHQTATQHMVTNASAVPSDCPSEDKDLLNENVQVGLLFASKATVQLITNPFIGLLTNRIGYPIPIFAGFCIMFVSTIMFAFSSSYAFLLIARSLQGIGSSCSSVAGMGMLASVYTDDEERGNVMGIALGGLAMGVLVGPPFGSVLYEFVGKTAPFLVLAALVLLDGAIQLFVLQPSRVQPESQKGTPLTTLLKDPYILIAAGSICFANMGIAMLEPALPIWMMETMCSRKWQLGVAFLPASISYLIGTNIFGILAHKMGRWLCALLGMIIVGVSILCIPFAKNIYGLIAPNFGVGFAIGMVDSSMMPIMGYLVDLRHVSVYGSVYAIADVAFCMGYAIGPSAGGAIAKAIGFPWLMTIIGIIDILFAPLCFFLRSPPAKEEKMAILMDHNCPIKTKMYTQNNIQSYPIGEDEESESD
Metric name: Ki (nM)
Give your result in nM as a bare value.

query: Complete the entry with Ki for CN1[C@@H](CCc2cccc3ccccc23)CCC[C@H]1CCc1cccc2ccccc12
result: 630

----------
Biological target: Neuronal acetylcholine receptor; alpha4/beta2 (Rattus norvegicus, UniProt P09483+P12390)
Sequence (P09483 whole entry): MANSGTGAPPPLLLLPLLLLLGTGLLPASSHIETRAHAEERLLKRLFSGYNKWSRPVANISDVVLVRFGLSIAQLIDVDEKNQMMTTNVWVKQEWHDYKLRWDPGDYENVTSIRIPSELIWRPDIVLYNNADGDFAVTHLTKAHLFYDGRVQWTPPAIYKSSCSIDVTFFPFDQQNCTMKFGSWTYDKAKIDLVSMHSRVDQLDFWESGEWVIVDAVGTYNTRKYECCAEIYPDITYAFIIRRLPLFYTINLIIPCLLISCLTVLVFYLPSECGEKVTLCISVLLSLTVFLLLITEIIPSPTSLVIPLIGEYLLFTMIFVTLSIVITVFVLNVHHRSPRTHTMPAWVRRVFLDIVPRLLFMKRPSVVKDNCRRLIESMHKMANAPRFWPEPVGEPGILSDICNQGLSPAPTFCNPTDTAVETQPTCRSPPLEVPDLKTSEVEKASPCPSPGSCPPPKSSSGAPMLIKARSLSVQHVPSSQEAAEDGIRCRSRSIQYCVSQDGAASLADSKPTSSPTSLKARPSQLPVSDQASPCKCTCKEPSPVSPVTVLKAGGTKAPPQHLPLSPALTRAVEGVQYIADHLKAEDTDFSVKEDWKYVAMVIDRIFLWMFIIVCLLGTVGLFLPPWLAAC
Sequence (P12390 whole entry): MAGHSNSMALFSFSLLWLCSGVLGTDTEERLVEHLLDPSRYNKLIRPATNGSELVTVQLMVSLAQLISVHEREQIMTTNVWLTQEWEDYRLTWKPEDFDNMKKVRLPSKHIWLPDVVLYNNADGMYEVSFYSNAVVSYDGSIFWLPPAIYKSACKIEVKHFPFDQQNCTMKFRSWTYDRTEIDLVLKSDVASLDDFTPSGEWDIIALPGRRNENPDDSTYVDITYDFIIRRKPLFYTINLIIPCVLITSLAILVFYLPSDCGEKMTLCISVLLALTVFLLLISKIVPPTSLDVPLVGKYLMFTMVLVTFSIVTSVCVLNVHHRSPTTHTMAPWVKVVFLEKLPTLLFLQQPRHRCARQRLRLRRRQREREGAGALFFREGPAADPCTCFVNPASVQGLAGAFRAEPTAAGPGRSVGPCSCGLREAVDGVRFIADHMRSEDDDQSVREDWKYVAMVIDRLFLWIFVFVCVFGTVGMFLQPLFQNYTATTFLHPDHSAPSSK
Experiment: Antagonist activity at alpha4beta2 nAChR in rat brain synaptosomes assessed as inhibition of nicotine-induced 86Rb+ efflux by liquid scintillation spectrophotometry
Metric name: IC50

CN1C(CC(=O)c2ccccc2)CCC[C@H]1CC(OC(=O)c1ccccc1)c1ccccc1 (single isomer, unassigned)	850 nM
Cc1ccc(S(=O)(=O)OC(C[C@@H]2CCCC(CC(=O)c3ccccc3)N2C)c2ccccc2)cc1 (single isomer, unassigned)	2 nM

Kindly review the next compound as well.
query: Complete the entry with IC50 for CN1C(CC(=O)c2ccccc2)CCC[C@H]1CC(OS(=O)(=O)c1ccccc1)c1ccccc1 (single isomer, unassigned)
result: 1600 nM

----------
Assay: Displacement of [3H]MLA from alpha7 nAChR in rat brain homogenate by liquid scintillation spectrophotometry
Assay type: tissue-based
Metric name: Ki (µM)
Give your result in µM as a bare value.

Consider the reported Ki for these compounds:
CN1[C@@H](CC(=O)c2ccccc2)CCC[C@H]1C[C@H](OC(=O)c1cccs1)c1ccccc1	36.2
CN1C(CC(=O)c2ccccc2)CCC[C@H]1CC(OS(=O)(=O)Cc1ccccc1)c1ccccc1 (single isomer, unassigned)	46.6
CC(C)S(=O)(=O)OC(C[C@@H]1CCCC(CC(=O)c2ccccc2)N1C)c1ccccc1 (single isomer, unassigned)	47.7
CN1C(CC(=O)c2ccccc2)CCC[C@H]1CC(OS(=O)(=O)c1ccc([N+](=O)[O-])cc1)c1ccccc1 (single isomer, unassigned)	53.8
CN1[C@@H](CC(=O)c2ccccc2)CCC[C@H]1C[C@H](OS(=O)(=O)c1cccs1)c1ccccc1	53.8

Kindly review the next compound as well.
query: Complete the entry with Ki for CCCCS(=O)(=O)OC(C[C@@H]1CCCC(CC(=O)c2ccccc2)N1C)c1ccccc1 (single isomer, unassigned)
result: 41

----------
Target: Sodium-dependent serotonin transporter (Rattus norvegicus, UniProt P31652)
Assay: Inhibition of [3H]5HT uptake at SERT in rat brain hippocampal synaptosomes by liquid scintillation spectrophotometry
pKi: −log10 of the molar value.
pKi below 5 gives condition not met; pKi at or above it gives condition met.

Here are 3 compounds together with their reported answers.
CN1[C@@H](CC(=O)c2ccccc2)CCC[C@H]1C[C@H](OS(=O)(=O)c1ccc2ccccc2c1)c1ccccc1	condition met
CC(C)S(=O)(=O)OC(C[C@@H]1CCCC(CC(=O)c2ccccc2)N1C)c1ccccc1 (single isomer, unassigned)	condition not met
CN1[C@@H](CC(=O)c2ccccc2)CCC[C@H]1C[C@H](OS(=O)(=O)c1cccs1)c1ccccc1	condition not met

query: Reported pKi reaches at least 5 for CCC(=O)OC(C[C@@H]1CCCC(CC(=O)c2ccccc2)N1C)c1ccccc1 (single isomer, unassigned) ?
result: condition met

query: Reported pKi reaches at least 5 for CN1C(CC(=O)c2ccccc2)CCC[C@H]1CC(OS(=O)(=O)c1ccc(Cl)cc1)c1ccccc1 (single isomer, unassigned) ?
result: condition met

query: Reported pKi reaches at least 5 for Cc1ccc(C(=O)O[C@@H](C[C@@H]2CCC[C@H](CC(=O)c3ccccc3)N2C)c2ccccc2)cc1 ?
result: condition met

----------
Molecular target: Synaptic vesicular amine transporter (Rattus norvegicus)
Sequence (Q01827 whole entry): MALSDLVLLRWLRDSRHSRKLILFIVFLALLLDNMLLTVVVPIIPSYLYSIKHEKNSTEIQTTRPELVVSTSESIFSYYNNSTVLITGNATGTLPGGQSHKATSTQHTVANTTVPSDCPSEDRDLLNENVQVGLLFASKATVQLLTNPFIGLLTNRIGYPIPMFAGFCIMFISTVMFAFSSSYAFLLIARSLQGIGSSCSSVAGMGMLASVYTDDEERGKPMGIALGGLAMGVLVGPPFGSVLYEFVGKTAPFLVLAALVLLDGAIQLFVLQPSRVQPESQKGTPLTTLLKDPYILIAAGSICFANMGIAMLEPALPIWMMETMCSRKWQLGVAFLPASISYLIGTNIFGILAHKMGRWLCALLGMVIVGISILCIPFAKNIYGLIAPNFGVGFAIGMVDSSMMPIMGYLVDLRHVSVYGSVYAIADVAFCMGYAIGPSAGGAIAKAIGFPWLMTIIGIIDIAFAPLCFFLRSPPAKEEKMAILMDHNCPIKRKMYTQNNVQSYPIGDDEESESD
Assay: Displacement of [3H]MTBZ from VMAT2 in rat whole brain vesicles by liquid scintillation spectrophotometry
Metric name: pKi
Please treat pKi as minus the base-10 logarithm of the molar concentration.

CN1[C@@H](CC(=O)c2ccccc2)CCC[C@H]1C[C@H](OC(=O)c1cccs1)c1ccccc1	5.20
CCC(=O)OC(C[C@@H]1CCCC(CC(=O)c2ccccc2)N1C)c1ccccc1 (single isomer, unassigned)	5.32
CN1C(CC(=O)c2ccccc2)CCC[C@H]1CC(OC(=O)c1ccccc1)c1ccccc1 (single isomer, unassigned)	5.82

Kindly review the next molecule as well.
query: Complete the entry with pKi for COc1ccc(C(=O)O[C@@H](C[C@@H]2CCC[C@H](CC(=O)c3ccccc3)N2C)c2ccccc2)cc1
result: 5.53

----------
# reported pKi; entries follow
Target: Neuronal acetylcholine receptor; alpha4/beta2 (Rattus norvegicus, UniProt P09483+P12390)
Assay: Displacement of [3H]nicotine from alpha4beta2 nAChR in rat brain homogenate by liquid scintillation spectrophotometry
Please treat pKi as minus the base-10 logarithm of the molar concentration.

COc1ccc(C(=O)O[C@@H](C[C@@H]2CCC[C@H](CC(=O)c3ccccc3)N2C)c2ccccc2)cc1	4.71

Kindly review the next compound as well.
query: Identify measured pKi obtained with Neuronal acetylcholine receptor; alpha4/beta2 (Rattus norvegicus, UniProt P09483+P12390) for CN1C(CC(=O)c2ccccc2)CCC[C@H]1CC(OS(=O)(=O)c1ccc(Cl)cc1)c1ccccc1 (single isomer, unassigned) .
result: 7.80

----------
Target: UniProt:P23977
Sequence (P23977 whole entry): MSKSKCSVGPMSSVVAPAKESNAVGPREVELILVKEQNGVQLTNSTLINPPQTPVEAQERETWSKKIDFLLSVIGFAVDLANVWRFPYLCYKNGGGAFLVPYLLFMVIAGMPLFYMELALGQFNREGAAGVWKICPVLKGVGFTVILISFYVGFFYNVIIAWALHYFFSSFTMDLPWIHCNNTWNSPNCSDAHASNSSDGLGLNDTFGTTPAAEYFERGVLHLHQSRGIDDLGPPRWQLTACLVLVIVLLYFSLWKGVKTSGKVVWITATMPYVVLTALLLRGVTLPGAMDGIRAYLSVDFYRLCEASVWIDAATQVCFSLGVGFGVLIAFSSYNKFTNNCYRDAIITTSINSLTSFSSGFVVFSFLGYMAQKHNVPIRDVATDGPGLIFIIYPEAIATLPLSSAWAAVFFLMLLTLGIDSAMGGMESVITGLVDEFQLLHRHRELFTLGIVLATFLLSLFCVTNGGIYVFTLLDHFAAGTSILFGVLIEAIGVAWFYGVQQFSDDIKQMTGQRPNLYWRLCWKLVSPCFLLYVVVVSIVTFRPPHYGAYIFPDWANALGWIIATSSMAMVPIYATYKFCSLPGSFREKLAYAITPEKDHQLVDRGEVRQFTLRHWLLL
Assay: Inhibition of [3H]DA uptake at DAT in rat brain striatal synaptosomes by liquid scintillation spectrophotometry
pKi: −log10 of the molar value.
pKi below 5 gives false; pKi at or above it gives true.

Here are 3 molecules together with their reported answers.
Cc1ccc(S(=O)(=O)OC(C[C@@H]2CCCC(CC(=O)c3ccccc3)N2C)c2ccccc2)cc1 (single isomer, unassigned)	false
CC(C)C(=O)OC(C[C@@H]1CCCC(CC(=O)c2ccccc2)N1C)c1ccccc1 (single isomer, unassigned)	true
Cc1ccc(C(=O)O[C@@H](C[C@@H]2CCC[C@H](CC(=O)c3ccccc3)N2C)c2ccccc2)cc1	true

query: Reported pKi reaches at least 5 for CC(C)S(=O)(=O)OC(C[C@@H]1CCCC(CC(=O)c2ccccc2)N1C)c1ccccc1 (single isomer, unassigned) ?
result: true

query: Reported pKi reaches at least 5 for CN1C(CC(=O)c2ccccc2)CCC[C@H]1CC(OS(=O)(=O)Cc1ccccc1)c1ccccc1 (single isomer, unassigned) ?
result: false

query: Reported pKi reaches at least 5 for CN1C(CC(=O)c2ccccc2)CCC[C@H]1CC(OS(=O)(=O)c1ccc(F)cc1)c1ccccc1 (single isomer, unassigned) ?
result: false

----------
# reported Ki; entries follow
Target: UniProt:Q01827
Assay: Displacement of [3H]MTBZ from VMAT2 in rat whole brain vesicles by liquid scintillation spectrophotometry
Give your result in µM as a bare value.

Consider the reported Ki for these compounds:
Cc1ccc(C(=O)O[C@@H](C[C@@H]2CCC[C@H](CC(=O)c3ccccc3)N2C)c2ccccc2)cc1	1.76
CC(C)C(=O)OC(C[C@@H]1CCCC(CC(=O)c2ccccc2)N1C)c1ccccc1 (single isomer, unassigned)	2.61
CC(=O)OC(C[C@@H]1CCCC(CC(=O)c2ccccc2)N1C)c1ccccc1 (single isomer, unassigned)	8.05

Kindly review the next compound as well.
query: Complete the entry with Ki for CCCC(=O)OC(C[C@@H]1CCCC(CC(=O)c2ccccc2)N1C)c1ccccc1 (single isomer, unassigned)
result: 3.38

----------
Biological target: Sodium-dependent serotonin transporter (Rattus norvegicus, UniProt P31652)
Assay: Inhibition of [3H]5HT uptake at SERT in rat brain hippocampal synaptosomes by liquid scintillation spectrophotometry
Metric name: log10(Ki) (log10 of the value in µM)
For clarity, the numbers are log10 values of Ki expressed in µM.

Consider the reported log10(Ki) for these compounds:
CN1[C@@H](CC(=O)c2ccccc2)CCC[C@H]1C[C@H](OS(=O)(=O)c1cccc2ccccc12)c1ccccc1	1.54
CN1C(CC(=O)c2ccccc2)CCC[C@H]1CC(OC(=O)c1ccccc1)c1ccccc1 (single isomer, unassigned)	0.32
CN1C(CC(=O)c2ccccc2)CCC[C@H]1CC(OS(=O)(=O)c1ccc([N+](=O)[O-])cc1)c1ccccc1 (single isomer, unassigned)	1.26
Cc1ccc(S(=O)(=O)OC(C[C@@H]2CCCC(CC(=O)c3ccccc3)N2C)c2ccccc2)cc1 (single isomer, unassigned)	1.21

Kindly review the next compound as well.
query: Complete the entry with log10(Ki) for CCCC(=O)OC(C[C@@H]1CCCC(CC(=O)c2ccccc2)N1C)c1ccccc1 (single isomer, unassigned)
result: 1.09

----------
# reported pKi; entries follow
Target: Neuronal acetylcholine receptor; alpha4/beta2 (Rattus norvegicus, UniProt P09483+P12390)
Assay: Displacement of [3H]nicotine from alpha4beta2 nAChR in rat brain homogenate by liquid scintillation spectrophotometry
Please treat pKi as minus the base-10 logarithm of the molar concentration.

Consider the reported pKi for these compounds:
CC(C)C(=O)OC(C[C@@H]1CCCC(CC(=O)c2ccccc2)N1C)c1ccccc1 (single isomer, unassigned)	7.22
CN1[C@@H](CC(=O)c2ccccc2)CCC[C@H]1C[C@H](OC(=O)c1cccs1)c1ccccc1	6.07
CN1[C@@H](CC(=O)c2ccccc2)CCC[C@H]1C[C@H](OS(=O)(=O)c1ccc2ccccc2c1)c1ccccc1	8.00
CN1C(CC(=O)c2ccccc2)CCC[C@H]1CC(OS(=O)(=O)Cc1ccccc1)c1ccccc1 (single isomer, unassigned)	7.89
CN1[C@@H](CC(=O)c2ccccc2)CCC[C@H]1C[C@H](OS(=O)(=O)c1cccs1)c1ccccc1	7.89
CC(=O)OC(C[C@@H]1CCCC(CC(=O)c2ccccc2)N1C)c1ccccc1 (single isomer, unassigned)	7.15
Cc1ccc(C(=O)O[C@@H](C[C@@H]2CCC[C@H](CC(=O)c3ccccc3)N2C)c2ccccc2)cc1	5.79
CN1[C@@H](CC(=O)c2ccccc2)CCC[C@H]1C[C@H](OS(=O)(=O)c1cccc2ccccc12)c1ccccc1	7.77

query: Complete the entry with pKi for CCC(=O)OC(C[C@@H]1CCCC(CC(=O)c2ccccc2)N1C)c1ccccc1 (single isomer, unassigned)
result: 6.82

query: Complete the entry with pKi for CN1C(CC(=O)c2ccccc2)CCC[C@H]1CC(OS(=O)(=O)c1ccc(F)cc1)c1ccccc1 (single isomer, unassigned)
result: 7.92

query: Complete the entry with pKi for CCCC(=O)OC(C[C@@H]1CCCC(CC(=O)c2ccccc2)N1C)c1ccccc1 (single isomer, unassigned)
result: 6.30

query: Complete the entry with pKi for CCCCS(=O)(=O)OC(C[C@@H]1CCCC(CC(=O)c2ccccc2)N1C)c1ccccc1 (single isomer, unassigned)
result: 7.96

query: Complete the entry with pKi for CN1C(CC(=O)c2ccccc2)CCC[C@H]1CC(OC(=O)c1ccccc1)c1ccccc1 (single isomer, unassigned)
result: 5.54

Origin of values: ChEMBL document CHEMBL1159052
